meta.source: paper PMC4850295

Test system: GCaMP5-expressing T. gondii
Construct: whole extracellular parasites expressing GCaMP5 Ca2+ sensor
Design: species or system GCaMP5-expressing Toxoplasma gondii, extracellular; GCaMP5 fluorescence (cytosolic Ca2+) after 100 uM zaprinast in compound-pretreated extracellular parasites, background-subtracted, relative to zaprinast alone
Conditions: 100 uM zaprinast stimulation; 10 min pretreatment; mean of two replicates; 0.23 h
property.label: fold change in fluorescence relative to zaprinast alone

                                    compound  observed_value
 0  CC(C)(C)c1ccc(-n2cnc3c(N)ncnc32)cc1 [SKF-97263]           1.008
 1     CCn1c(-c2ccoc2)nc2cnccc21 [SB-733887]           1.127
 2  COc1ccc(C)c(Nc2ccnc(Nc3ccc(-c4cnc[nH]4)cc3)n2)c1 [GW784041A]           1.009
 3  Fc1cccc(COc2ccc(Nc3ncnc4sc(-c5ccc[nH]5)cc34)cc2Cl)c1 [GW707818B]          0.2741
 4  CC(=O)N1CCN(c2ccc(Nc3nccc(-c4sc(C(C)C)nc4-c4cccc(NS(=O)(=O)c5ccccc5)c4)n3)cn2)CC1 [GSK1645872A]          0.8017
 5  COC(=O)Nc1nc2cc(Oc3ccc(NC(=O)Nc4cccc(C(=O)O)c4)cc3)ccc2[nH]1 [GW701427A]           1.188
 6  NC[C@H](Cc1ccc(C(F)(F)F)cc1)NC(=O)c1cc(Br)c(-c2ccnc3[nH]ccc23)s1 [GSK1487252A]          0.4926
 7  COc1ccc(NC(=O)c2ccoc2)cc1-c1ccc(C(=O)NCC2CC2)cc1 [GW810437X]           1.267
 8  NS(=O)(=O)c1ccc(N/N=C2\C(=O)Nc3ccc(C(=O)NCCc4c[nH]cn4)cc32)cc1 [GW300660X]           1.243
 9  NCCNS(=O)(=O)c1ccc(-c2ccnc3[nH]ccc23)cc1 [GSK977617A]           1.223
10  Fc1ccc(-c2ncn(C3CCNCC3)c2-c2ccnc(Oc3ccc(-c4ccccc4)cc3)n2)cc1 [SB-245391]           1.215
11  Cn1nc(-c2ccc(NC(=O)Nc3ccc4ccccc4c3)c(F)c2)c2cnc(NCCN3CCOCC3)nc21 [SB-750250-M]           1.757
12  Cc1nnc(-c2ccc(C)c(-c3ccc(C(=O)NCc4ccc(Cl)cc4)cc3)c2)o1 [GW708893X]           1.038
13  Clc1cc(Cl)cc(Nc2ccnc(Nc3cc(Cl)cc(Cl)c3)n2)c1 [GSK175726A]          0.5192
14  Nc1ncc(-c2cccc(S(N)(=O)=O)c2)c2scc(-c3ccc(F)c(Cl)c3)c12 [GW856804X]          0.8933
15  NS(=O)(=O)c1cccc(N/C=C2\C(=O)Nc3ccccc32)c1 [GW275616X]          0.9797
16  CC(C)c1nc(-c2ccc(F)c(NS(=O)(=O)c3c(F)cccc3F)c2)c(-c2ccnc(Nc3ccc(N4CCOCC4)nc3)n2)s1 [GSK1804250A]           1.361
17  CC1(C)CC(n2cnc(-c3ccc(F)cc3)c2-c2ccnc(N)n2)CC(C)(C)N1 [SB-221466]            1.33
18  CC(C)c1nc(-c2cccc(NS(=O)(=O)c3c(F)cccc3F)c2F)c(-c2ccnc(Nc3ccc(N4CCOCC4)nc3)n2)s1 [GSK2008607A]           1.572
19  Nc1ncnc2occ(-c3ccc4c(c3)CCN4C(=O)Cc3cc(F)ccc3F)c12 [GSK2645446A]          0.8883
20  CN(C)Cc1ccc(-c2ccc3c(Nc4ccc(Oc5ccccn5)cc4)ccnc3c2)o1 [GW567148X]           1.129
21  c1cc(-c2cnn3nc(N4CCOCC4)ccc23)nc(NC2CC2)n1 [GW708336X]          0.6756
22  Cc1ccc(NC(=O)c2ccc(Cl)c(Cl)c2)cc1-c1ccc(C(=O)Nc2ccncc2)cc1 [GSK1398460A]           1.557
